System: sarcoma 180
Test: In vivo antitumor assay on Sarcoma 180 (S180) in mice
Conditions: 10 mg/kg, iv, d 1, 4
Tumor Weight (g) X ± SD listing for selected compounds.
QUANTITY KIND: Tumor Weight (g) X ± SD

compound="CCC1=C[C@@H]2CN(CCc3c([nH]c4ccccc34)[C@@](C(=O)OC)(c3cc4c(cc3OC)N(C)[C@H]3C(O)(CNC(=O)OCC(C)C)[C@H](OC(C)=O)[C@]5(CC)C=CCN6CC[C@]43[C@@H]65)C2)C1 (stereo partly shown) [BM53]" quantity_kind="Tumor Weight (g) X ± SD" observed_result="0.24 ± 0.09 g"
compound="CCC1=C[C@@H]2CN(CCc3c([nH]c4ccccc34)[C@@](C(=O)OC)(c3cc4c(cc3OC)N(C)[C@H]3C(O)(CNC(=O)OCC5CC5)[C@H](OC(C)=O)[C@]5(CC)C=CCN6CC[C@]43[C@@H]65)C2)C1 (stereo partly shown) [BM57]" quantity_kind="Tumor Weight (g) X ± SD" observed_result="0.26 ± 0.07 g"
compound="CCC1=C[C@@H]2CN(CCc3c([nH]c4ccccc34)[C@@](C(=O)OC)(c3cc4c(cc3OC)N(C)[C@H]3C(O)(CNC(=O)C5CC5)[C@H](OC(C)=O)[C@]5(CC)C=CCN6CC[C@]43[C@@H]65)C2)C1 (stereo partly shown) [BM33]" quantity_kind="Tumor Weight (g) X ± SD" observed_result="0.30 ± 0.05 g"
compound="CCC1=C[C@@H]2CN(CCc3c([nH]c4ccccc34)[C@@](C(=O)OC)(c3cc4c(cc3OC)N(C)[C@H]3C(O)(CNC(=O)OC)[C@H](OC(C)=O)[C@]5(CC)C=CCN6CC[C@]43[C@@H]65)C2)C1 (stereo partly shown) [BM48]" quantity_kind="Tumor Weight (g) X ± SD" observed_result="0.85 ± 0.11 g"

====

Tumor Weight (g) X ± SD listing for selected compounds.
Test system: sarcoma 180
Experiment: In vivo antitumor assay on Sarcoma 180 (S180) in mice
Conditions: 10 mg/kg, iv, d 1, 4
Counter-ions that a name gives are not always drawn.
QUANTITY KIND: Tumor Weight (g) X ± SD

compound="CCC1=C[C@@H]2CN(CCc3c([nH]c4ccccc34)[C@@](C(=O)OC)(c3cc4c(cc3OC)N(C)[C@H]3C(O)(CNC(=O)c5ccc6c(c5)OCO6)[C@H](OC(C)=O)[C@]5(CC)C=CCN6CC[C@]43C65)C2)C1 (stereo partly shown)" system_tested="sarcoma 180" quantity_kind="Tumor Weight (g) X ± SD" observed_result=0.67
compound="CCC1=C[C@@H]2CN(CCc3c([nH]c4ccccc34)[C@@](C(=O)OC)(c3cc4c(cc3OC)N(C)[C@H]3[C@@](O)(C(=O)OC)[C@H](OC(C)=O)[C@]5(CC)C=CCN6CC[C@]43[C@@H]65)C2)C1 [Anhydrovinblastine tartrate, anhydrovinblastine tartrate, reference compound]" system_tested="sarcoma 180" quantity_kind="Tumor Weight (g) X ± SD" observed_result=0.49
compound="CCC(=O)NCC1(O)[C@H](OC(C)=O)[C@]2(CC)C=CCN3CC[C@@]4(c5cc([C@@]6(C(=O)OC)C[C@@H]7C=C(CC)CN(CCc8c6[nH]c6ccccc86)C7)c(OC)cc5N(C)[C@@H]14)[C@@H]32 (stereo partly shown)" system_tested="sarcoma 180" quantity_kind="Tumor Weight (g) X ± SD" observed_result=0.25
compound="CCC1=C[C@@H]2CN(C1)Cc1c([nH]c3ccccc13)[C@@](C(=O)OC)(c1cc3c(cc1OC)N(C)[C@H]1[C@@](O)(C(=O)OC)[C@H](OC(C)=O)[C@]4(CC)C=CCN5CC[C@]31[C@@H]54)C2 [Vinorelbine tartrate, vinorelbine tartrate, reference compound]" system_tested="sarcoma 180" quantity_kind="Tumor Weight (g) X ± SD" observed_result=0.60

====

Test system: sarcoma 180
Assay: In vivo antitumor assay on Sarcoma 180 (S180) in mice
Conditions: 20 mg/kg, iv, d 1, 4
QUANTITY KIND: Tumor Weight (g) X ± SD

compound="CC[C@]12C=CCN3CC[C@@]4(c5cc([C@@]6(C(=O)OC)C[C@@H]7C[C@@H](C(C)(F)F)CN(CCc8c6[nH]c6ccccc86)C7)c(OC)cc5N(C)[C@H]4C(O)(COC(C)=O)[C@@H]1OC(C)=O)[C@@H]32 (some centres unmarked)" system_tested="sarcoma 180" quantity_kind="Tumor Weight (g) X ± SD" observed_result=1.53
compound="CCC(=O)NCC1(O)[C@H](OC(C)=O)[C@]2(CC)C=CCN3CC[C@@]4(c5cc([C@@]6(C(=O)OC)C[C@@H]7C[C@@H](C(C)(F)F)CN(CCc8c6[nH]c6ccccc86)C7)c(OC)cc5N(C)[C@@H]14)[C@@H]32 (some centres unmarked)" system_tested="sarcoma 180" quantity_kind="Tumor Weight (g) X ± SD" observed_result=0.76

====

Test system: sarcoma 180
Assay: In vivo antitumor assay on Sarcoma 180 (S180) in mice
Conditions: 20 mg/kg, iv d 1
QUANTITY KIND: Average weight (g) At sacrifice

compound="CCC1=C[C@@H]2CN(CCc3c([nH]c4ccccc34)[C@@](C(=O)OC)(c3cc4c(cc3OC)N(C)[C@H]3C(O)(CNC(=O)OC)[C@H](OC(C)=O)[C@]5(CC)C=CCN6CC[C@]43[C@@H]65)C2)C1 (stereo partly shown)" measurement_unit=g observed_result=24.2
compound="CCC1=C[C@@H]2CN(CCc3c([nH]c4ccccc34)[C@@](C(=O)OC)(c3cc4c(cc3OC)N(C)[C@H]3C(O)(CNC(=O)C5CC5)[C@H](OC(C)=O)[C@]5(CC)C=CCN6CC[C@]43[C@@H]65)C2)C1 (stereo partly shown)" measurement_unit=g observed_result=23.9
compound="CCC1=C[C@@H]2CN(CCc3c([nH]c4ccccc34)[C@@](C(=O)OC)(c3cc4c(cc3OC)N(C)[C@H]3C(O)(CNC(=O)c5ccc6c(c5)OCO6)[C@H](OC(C)=O)[C@]5(CC)C=CCN6CC[C@]43C65)C2)C1 (stereo partly shown)" measurement_unit=g observed_result=23.3
compound="CCC(=O)NCC1(O)[C@H](OC(C)=O)[C@]2(CC)C=CCN3CC[C@@]4(c5cc([C@@]6(C(=O)OC)C[C@@H]7C=C(CC)CN(CCc8c6[nH]c6ccccc86)C7)c(OC)cc5N(C)[C@@H]14)[C@@H]32 (stereo partly shown)" measurement_unit=g observed_result=20.7

====

Tested on: sarcoma 180
Assay: In vivo antitumor assay on Sarcoma 180 (S180) in mice
Conditions: 10 mg/kg, iv, d 1, 4
QUANTITY KIND: Average weight (g) At sacrifice

compound="CCC1=C[C@@H]2CN(CCc3c([nH]c4ccccc34)[C@@](C(=O)OC)(c3cc4c(cc3OC)N(C)[C@H]3C(O)(CNC(=O)c5ccc6c(c5)OCO6)[C@H](OC(C)=O)[C@]5(CC)C=CCN6CC[C@]43C65)C2)C1 (stereo partly shown)" quantity_kind="Average weight (g) At sacrifice" measurement_unit=g observed_result=25.3
compound="CCC1=C[C@@H]2CN(CCc3c([nH]c4ccccc34)[C@@](C(=O)OC)(c3cc4c(cc3OC)N(C)[C@H]3C(O)(CNC(=O)OCC(C)C)[C@H](OC(C)=O)[C@]5(CC)C=CCN6CC[C@]43[C@@H]65)C2)C1 (stereo partly shown)" quantity_kind="Average weight (g) At sacrifice" measurement_unit=g observed_result=25.4
compound="CCC1=C[C@@H]2CN(CCc3c([nH]c4ccccc34)[C@@](C(=O)OC)(c3cc4c(cc3OC)N(C)[C@H]3C(O)(CNC(=O)C5CC5)[C@H](OC(C)=O)[C@]5(CC)C=CCN6CC[C@]43[C@@H]65)C2)C1 (stereo partly shown)" quantity_kind="Average weight (g) At sacrifice" measurement_unit=g observed_result=22.2
compound="CCC(=O)NCC1(O)[C@H](OC(C)=O)[C@]2(CC)C=CCN3CC[C@@]4(c5cc([C@@]6(C(=O)OC)C[C@@H]7C=C(CC)CN(CCc8c6[nH]c6ccccc86)C7)c(OC)cc5N(C)[C@@H]14)[C@@H]32 (stereo partly shown)" quantity_kind="Average weight (g) At sacrifice" measurement_unit=g observed_result=21.4

====

Average weight (g) At sacrifice listing for selected molecules.
Test system: sarcoma 180
Assay: In vivo antitumor assay on Sarcoma 180 (S180) in mice
Conditions: 10 mg/kg, iv, d 1, 4
Where a name gives a salt, the structure may show the parent alone.
QUANTITY KIND: Average weight (g) At sacrifice

molecule="CCC1=C[C@@H]2CN(CCc3c([nH]c4ccccc34)[C@@](C(=O)OC)(c3cc4c(cc3OC)N(C)[C@H]3C(O)(CNC(=O)OC)[C@H](OC(C)=O)[C@]5(CC)C=CCN6CC[C@]43[C@@H]65)C2)C1 (stereo partly shown) [BM48]" quantity_kind="Average weight (g) At sacrifice" measurement_unit=g observed_result=27.1
molecule="CCC1=C[C@@H]2CN(CCc3c([nH]c4ccccc34)[C@@](C(=O)OC)(c3cc4c(cc3OC)N(C)[C@H]3[C@@](O)(C(=O)OC)[C@H](OC(C)=O)[C@]5(CC)C=CCN6CC[C@]43[C@@H]65)C2)C1 [Anhydrovinblastine tartrate, anhydrovinblastine tartrate, reference compound]" quantity_kind="Average weight (g) At sacrifice" measurement_unit=g observed_result=27.9
molecule="CCC1=C[C@@H]2CN(C1)Cc1c([nH]c3ccccc13)[C@@](C(=O)OC)(c1cc3c(cc1OC)N(C)[C@H]1[C@@](O)(C(=O)OC)[C@H](OC(C)=O)[C@]4(CC)C=CCN5CC[C@]31[C@@H]54)C2 [Vinorelbine tartrate, vinorelbine tartrate, reference compound]" quantity_kind="Average weight (g) At sacrifice" measurement_unit=g observed_result=27.5
molecule="CCC1=C[C@@H]2CN(CCc3c([nH]c4ccccc34)[C@@](C(=O)OC)(c3cc4c(cc3OC)N(C)[C@H]3C(O)(CNC(=O)OCC5CC5)[C@H](OC(C)=O)[C@]5(CC)C=CCN6CC[C@]43[C@@H]65)C2)C1 (stereo partly shown) [BM57]" quantity_kind="Average weight (g) At sacrifice" measurement_unit=g observed_result=25.2
